Data provenance: patent US9428507B2

# Test system: P. falciparum D6
# Experimental protocol: In vitro P. falciparum blood-stage assay, strain D6
# Type: cell-based
# Condition details: Plasmodium falciparum
Attribute measured: IC50 (nM)
Write down the numeric answer in nM and omit the unit.

Which IC50 is reported for this molecule? COc1ccc2c3c([nH]c2c1)[C@H](CO)N(C(C)=O)CC31CCN(C(=O)Nc2ccccc2F)CC1 [Compound 15]
70

----------
# System: P. falciparum 7G8
# Experimental protocol: In vitro P. falciparum blood-stage assay, strain 7G8
# Type: cell-based
# Condition details: Plasmodium falciparum
# Method: Strains of Plasmodium falciparum (Dd2, 3D7, D6, K1, NF54, V1/3, HB3, 7G8, FCB, TM90C2B) were obtained from Malaria Research and Reference Reagent Resource Center (MR4). […] Parasitemia was determined by checking at least 500 red blood cells from a Giemsa-stained blood smear. […] The assay plates were read with 505 dichroic mirrors with 485-nm excitation and 530-nm emission settings.
Attribute measured: IC50 (nM)
Write down the numeric answer in nM and omit the unit.

Which IC50 is reported for this compound? COc1ccc2c3c([nH]c2c1)[C@H](CO)N(C(C)=O)CC31CCN(C(=O)Nc2ccccc2F)CC1 [Compound 15]
113
